target: JAK1 (Homo sapiens); construct: made in house; host or cells: SF9 insect cells (baculovirus); assay: JAK1 inhibition (Table 4); format: biochemical; conditions: read-out: JAK1 Ki
Sequence (P23458 852-1154): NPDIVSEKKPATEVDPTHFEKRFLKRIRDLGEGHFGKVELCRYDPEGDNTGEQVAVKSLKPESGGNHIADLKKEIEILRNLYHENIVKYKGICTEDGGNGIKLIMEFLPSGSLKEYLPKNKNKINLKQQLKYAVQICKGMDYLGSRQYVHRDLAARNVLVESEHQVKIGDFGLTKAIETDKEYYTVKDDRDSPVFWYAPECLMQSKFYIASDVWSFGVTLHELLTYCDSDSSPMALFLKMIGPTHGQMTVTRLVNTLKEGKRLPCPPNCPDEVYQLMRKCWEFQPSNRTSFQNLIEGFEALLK
ASSAY READOUT: Ki (nM)

SMILES STR: CS(=O)(=O)N1CCC(n2nnc3cnc4[nH]ccc4c32)CC1
Ki (nM): 4.96

1: O=S(=O)(CCO)N1CCC(n2cnc3cnc4[nH]ccc4c32)CC1
2: CC(=O)NCCOC(=O)N[C@H]1CC[C@H](n2cnc3cnc4[nH]ccc4c32)CC1
Problem: Given the entries 1 and 2 , determine which has the lower reported Ki. Provide the label of your selected option as the answer.
1

====

target: JAK2 (Homo sapiens, UniProt O60674); construct: made in house; host or cells: SF9 insect cells (baculovirus); assay: JAK2 inhibition (Table 4); type: biochemical; details: read-out: JAK2 Ki
Sequence (O60674 812-1132): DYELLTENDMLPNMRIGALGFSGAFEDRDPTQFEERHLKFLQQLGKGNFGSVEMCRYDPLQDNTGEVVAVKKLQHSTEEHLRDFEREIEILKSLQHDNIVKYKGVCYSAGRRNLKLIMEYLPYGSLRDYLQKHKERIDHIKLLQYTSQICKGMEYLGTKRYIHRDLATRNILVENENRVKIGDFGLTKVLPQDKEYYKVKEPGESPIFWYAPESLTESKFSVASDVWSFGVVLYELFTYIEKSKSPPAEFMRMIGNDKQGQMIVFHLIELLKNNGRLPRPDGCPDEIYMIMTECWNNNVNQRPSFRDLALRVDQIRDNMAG
pKi: −log10 of the molar value.
ASSAY READOUT: pKi

# example entries with known answers
MOLECULE: CN(C)CC(=O)N1CC[C@@H](n2cnc3cnc4[nH]ccc4c32)C1
pKi: 6.05
--
MOLECULE: N#Cc1ccc(CN2CC[C@@H](n3cnc4cnc5[nH]ccc5c43)C2)cc1
pKi: 7.75
--
MOLECULE: N#CCCN1CCC(n2c(CCn3cncn3)nc3cnc4[nH]ccc4c32)CC1
pKi: 7.19
--
MOLECULE: Cc1nc2cnc3[nH]ccc3c2n1C1CCC(NC(=O)CC#N)C1 (racemic)
pKi: 8.20
--
MOLECULE: CN(C)CC(=O)NCCc1nc2cnc3[nH]ccc3c2n1C1CCCCC1
pKi: 7.29

I: CN1CCCCC1C(=O)N1CCC(n2cnc3cnc4[nH]ccc4c32)CC1 (single isomer, unassigned) [Example 196]
II: C[C@@H](O)c1nc2cnc3[nH]ccc3c2n1C1CCC(C#N)CC1 (some centres unmarked)
Pick one, I or II : lowest reported pKi. The response must carry the label of the picked entry.
I

====

biological target: JAK2 (Homo sapiens, UniProt O60674); construct: made in house; host or cells: SF9 insect cells (baculovirus); test: JAK2 inhibition (Table 4); format: biochemical; settings: read-out: JAK2 Ki
pKi: −log10 of the molar value.
ASSAY READOUT: pKi

Recorded results for 4 molecules are shown here.
MOLECULE: O=C(Cc1nc2cnc3[nH]ccc3c2n1C1CCN(Cc2ccccc2)CC1)N1CCOCC1
TEST TARGET: JAK2 (Homo sapiens, UniProt O60674)
pKi: 7.20
//
MOLECULE: CCc1nccn1CCc1nc2cnc3[nH]ccc3c2n1C1CCN(CCC#N)CC1
TEST TARGET: JAK2 (Homo sapiens, UniProt O60674)
pKi: 7.04
//
MOLECULE: CC(C)NC(=O)C(C)c1nc2cnc3[nH]ccc3c2n1C1CCN(CCC#N)CC1 (racemic)
TEST TARGET: JAK2 (Homo sapiens, UniProt O60674)
pKi: 6.60
//
MOLECULE: N#CCCN1CCC(n2c(COCc3ccc(F)c(F)c3)nc3cnc4[nH]ccc4c32)CC1
TEST TARGET: JAK2 (Homo sapiens, UniProt O60674)
pKi: 7.23

1: Cc1nc2cnc3[nH]ccc3c2n1[C@H]1CC[C@@H](C(C)(C)O)CC1
2: OCc1nc2cnc3[nH]ccc3c2n1C1CCN(CC(F)(F)F)CC1
3: O=C(Cc1nc2cnc3[nH]ccc3c2n1C1CCN(Cc2ccccc2)CC1)N1CC(F)(F)C1
4: NC(=O)CN1CCC[C@@H](n2cnc3cnc4[nH]ccc4c32)C1
5: CN(C)CCC(=O)N1CCC(n2cnc3cnc4[nH]ccc4c32)CC1
# desc sort on pKi across 5 molecules Please express your ranking as an ordered list of the labels.
1, 2, 4, 3, 5
(1: 8.29, 2: 8.07, 4: 7.43, 3: 7.02, 5: 6.36)

I: N#Cc1nc2cnc3[nH]ccc3c2n1C1CCN(Cc2ccccc2)CC1
II: CC(C)(O)c1nc2cnc3[nH]ccc3c2n1C1CCN(CCC#N)CC1
// max by pKi over [ I , II ] Write the label of whichever entry you select.
I
